Molecular target: T1, human [1-305]-mouse chimeric EL (human; mouse, UniProt Q9WVG5 306-500)
T1 construct: Heparin extract, captured or detected by an anti-C2-tag antibody; also called human-mouse chimeric EL
T1 sequence: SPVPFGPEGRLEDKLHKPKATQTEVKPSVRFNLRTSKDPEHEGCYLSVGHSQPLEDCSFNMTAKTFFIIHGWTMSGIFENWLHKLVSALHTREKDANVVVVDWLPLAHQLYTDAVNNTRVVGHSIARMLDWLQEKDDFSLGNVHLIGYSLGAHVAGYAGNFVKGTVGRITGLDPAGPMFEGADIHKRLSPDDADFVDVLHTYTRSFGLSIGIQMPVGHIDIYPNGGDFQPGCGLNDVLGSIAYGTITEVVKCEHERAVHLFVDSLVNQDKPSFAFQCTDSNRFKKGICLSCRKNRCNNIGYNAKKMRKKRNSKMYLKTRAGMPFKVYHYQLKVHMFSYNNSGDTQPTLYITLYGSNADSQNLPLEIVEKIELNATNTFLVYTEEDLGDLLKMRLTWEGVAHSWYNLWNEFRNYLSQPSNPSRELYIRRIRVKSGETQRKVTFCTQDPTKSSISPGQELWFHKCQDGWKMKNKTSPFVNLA
Experiment: Biacore; EL captured by anti-C2-tag Ab; bivalent fit
MEASUREMENT TYPE: koff

BINDER: h16B3-S3 (antibody, V domains shown, humanized) VH: EVQLVESGGGLVQPGGSLRLSCAASGFTFSGYTMSWVRQAPGKGLEWVSEISFARDRAFYPDTVKGRFTISRDNSKNTLYLQMNSLRAEDTAVYYCARLGGKNHDFWYFDVWGQGTTVTVSS VL: DIVMTQSPDSLAVSLGERATINCRASESVEYYGTSLMQWYQQKPGQPPKLLIYAASNVESGVPDRFSGSGSGTDFTLTISSLQAEDVAVYYCQQSWKVPFTFGQGTKLEIK
ENDPOINT VALUE: 0.00013 s⁻¹
//
BINDER: h16B3-F3 (antibody, V domains shown, humanized) VH: EVQLVESGGGLVQPGGSLRLSCAASGFTFSGYTMSWVRQAPGKGLEWVSEISFARDRAFYPDTVKGRFTISRDNSKNTLYLQMNSLRAEDTAVYYCARLGGRNHDYWYFDVWGQGTTVTVSS VL: EIVLTQSPGTLSLSPGERATLSCRASESVEYYGTSLMQWYQQKPGQAPRLLIYAASNVESGIPDRFSGSGSGTDFTLTISRLEPEDFAVYYCQQSWKVPFTFGQGTKLEIK
ENDPOINT VALUE: 0.0002 s⁻¹
//
BINDER: h55A1-S6 (antibody, V domains shown, humanized) VH: QVQLVQSGSELKKPGASVKVSCKASGYTFTNYALNWVRQAPGQGLEWMGWINTYSGVGTYAGEFKGRFVFSLDTSVSTAYLQISSLKAEDTAVYYCARRGFYGRRFFDVWGKGTTVTVSS VL: DIVLTQSPASLAVSPGQRATITCKASQSVDYDVDSYMHWYQQKPGQPPKLLIYAASNLASGVPARFSGSGSGTDFTLTINPVEANDTANYYCQQTIEDPPTFGGGTKVEIK
ENDPOINT VALUE: 6.3e-05 s⁻¹

The reported measurements were obtained from patent US20200071424A1.
